tested on: PPARg DBDmut IVT, anti-PPARg (DBD mutation: PPARg1 K132A/R137A, NR concentration 270 nM); experiment: PBM binding z-score (relative to random genomic background probes); higher = stronger binding; sequences stand for … in GC…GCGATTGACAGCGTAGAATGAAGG
quantity: PBM binding z-score
Hey, just send me the number, nothing else.

Use the examples below as a reference point.
CCTAGTTGGTCAAGGTCACACAGGCTATAGGTAC | 0.538
ACTAGCAGGCCAAGGGACACTCAAGATTAGTCCG | -0.851

**Q:** Look up PBM binding z-score for this sequence: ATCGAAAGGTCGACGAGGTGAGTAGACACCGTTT
**A:** 0.273

**Q:** Likewise for GCTTACGGCTCAAAGGTTATAGCATGAATAGAAT ?
**A:** 0.142

====

Listed below: PBM binding z-score values for each entry.
test system: PPARg DBDmut IVT, anti-PPARg (DBD mutation: PPARg1 K132A/R137A, NR concentration 270 nM); assay: PBM binding z-score (relative to random genomic background probes); higher = stronger binding; sequences stand for … in GC…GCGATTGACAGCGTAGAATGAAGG
Answer with a bare number; do not write a unit.

TCGAGTAGATTAGGGGCATTCAGAATGGCGTCGA | -1.25
ATCTCTAGGTAACCAACTTCAGTGAATGCCGAAC | 1.39
TCAGACAGGTGAAGGTTACTCAGGTACGCAGTCG | 0.759
TCTGCTAGGTCTACGATGGTCAGCTAATCTGCTA | -0.797
GCTGGTAGGTCAACTGATGGTCAGCTAAAGCTCG | 0.562
ACTATTGGTTGACTTAGGGCAACCGATACGACGC | 0.813
GGACCGAGGGCAAGTTGATAGCAGAGTTTGATGG | -1.16
ACTATTAATTGACTTAGGGCAACCGATACGACGC | 1.47

**Q:** Please look up its PBM binding z-score: CGTCCAAGGTCAATGCTAGGTCATTGAAAGCATT
**A:** 0.205

**Q:** // repeat for TCATATAGGTAAAAGTGAAAGTCGAACGATATGA and report
**A:** 1.16

**Q:** // repeat for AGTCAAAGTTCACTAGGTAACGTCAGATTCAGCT and report
**A:** 0.959

**Q:** Here is the next sequence: AATACAGGGTCACTAGCCCAGAGTAGGTACGAAT
**A:** 0.703

**Q:** Follow-up entry: CCTCGGAGGACAACAGAAGGTCAGAGCTGCCAGA
**A:** -1.32

**Q:** Subsequent entry: TTACCAAGGTGTGCTGAGGTCGTTGATCCAACTC
**A:** -0.745

====

tested on: VDR:RXRa (NR concentration 270 nM, RXRa partner concentration 90 nM); assay: PBM binding z-score (relative to random genomic background probes); higher = stronger binding; sequences stand for … in GC…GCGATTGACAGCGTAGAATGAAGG
Each entry below carries its recorded PBM binding z-score.
Lab note: jot the number down without any unit.

Here's what some known entries look like.
CCTGCAAGGTCATGGTCAGCTAATCTACAGTATG | 4.76
ACACACAGGTGAGTGAAGGTAACTCAGCTGGACG | -0.0221
AGAATGAGGTTATTCGTAGATCAGGGAAGAAAGT | 1.78

**Q:** Which PBM binding z-score value is on record for CGTCCAAGGTCAGCAGGTCCGTGAAAGCGACGTG ?
**A:** 6

**Q:** Then what about the sequence ACAGAAAGGTGATGAAGGTAACTCAGGCTATCAT ?
**A:** 1.2

**Q:** For CCGTGTAGGTTATGGGGCATTCAGGCAACGGTGA then?
**A:** 0.11

**Q:** Query AGAATGAGGTTCTACGTAGATCAGGGAAGAAAGT next
**A:** -0.436

**Q:** Queued: ATATGTAGGTTACATCCTGGTCATTCAGGCTATG
**A:** 0.956

**Q:** Please give the result for TCATATCGGTAATACAGGTGAAAGTCGGCATCTA too.
**A:** 0.66

**Q:** Now the sequence AATATAGGGTCACTAGGCCAGAGTAGGTACGAAT
**A:** 4.06

**Q:** Entry CAAACTATGTCAAGAGGTCAAAGTCCGCTTCCCG please
**A:** 5.15

**Q:** Try the sequence AGTCAAACTTCACTAGGTAACGTAAGATTCAGCT
**A:** -0.0334
